pKi: −log10 of the molar value.
Reported pKi, human factor Xa (Homo sapiens).
assay metric: pKi

>>> df
                                   compound  recorded_value
0  COC[C@H]1CC[C@H](COC)N1C(=O)c1cc(C(=O)NC2CCN(C(C)C)CC2)n(Cc2cc(-c3ccc(Cl)s3)on2)n1 [Example 67]            6.38
1  CC(C)N1CCC(NC(=O)c2cc(C(=O)NC3CC3)nn2Cc2cc(-c3ccc(Cl)s3)on2)CC1 [Example 45]            7.21
2  CC(C)N1CCC(NC(=O)c2cc(C(=O)NS(C)(=O)=O)nn2Cc2cc(-c3ccc(Cl)s3)on2)CC1 [Example 82]            6.74
3  CC(C)N1CCC(NC(=O)c2cc(C(=O)N3CC(O)C3)nn2CC(=O)Nc2ccc(Cl)cn2)CC1 [Example 95]            7.41

###

Heads up, these compounds all have Ki values measured for human factor Xa (Homo sapiens).
assay metric: Ki

                                   compound  recorded_value
0  CC(C)N1CCC(NC(=O)c2cc(C(=O)O)nn2Cc2cc(-c3ccc(Cl)s3)on2)CC1 [Example 21]          214 nM
1  CC(C)N1CCC(NC(=O)c2cc(C(=O)N3CCC[C@H]3C(=O)O)nn2Cc2cc(-c3ccc(Cl)s3)on2)CC1 [Example 65]          142 nM
2  CC(C)N1CCC(NC(=O)c2cc(C(=O)N3CCC(N4CCCC4=O)CC3)nn2Cc2cc(-c3ccc(Cl)s3)on2)CC1 [Example 81]          142 nM
3  CC(C)N1CCC(NC(=O)c2cc(C(=O)N(CCO)CCO)nn2Cc2cc(-c3ccc(Cl)s3)on2)CC1 [Example 88]          106 nM
4  CC(C)N1CCC(NC(=O)c2cc(C(=O)NC3CCC3)nn2Cc2cc(-c3ccc(Cl)s3)on2)CC1 [Example 46]          106 nM
5  CC(C)N1CCC(NC(=O)c2cc(C(=O)O)n(Cc3cc(-c4ccc(Cl)s4)on3)n2)CC1 [Example 85]          185 nM
6  COCCOCCOc1cc(C(=O)NC2CCN(C(C)C)CC2)n(CC(=O)Nc2ccc(Cl)cn2)n1 [Example 104]           25 nM

###

pKi tested on human factor Xa (Homo sapiens, UniProt P00742): recorded values
Sequence (P00742 235-488 limits assumed): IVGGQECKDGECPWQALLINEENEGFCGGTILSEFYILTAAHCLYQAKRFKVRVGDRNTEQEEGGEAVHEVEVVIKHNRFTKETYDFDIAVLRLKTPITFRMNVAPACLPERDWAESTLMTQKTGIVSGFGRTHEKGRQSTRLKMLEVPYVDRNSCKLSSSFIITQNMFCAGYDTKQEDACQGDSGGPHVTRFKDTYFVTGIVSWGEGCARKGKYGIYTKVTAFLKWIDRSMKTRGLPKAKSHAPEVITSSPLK
Sequence (P00742 41-179 partner limits assumed): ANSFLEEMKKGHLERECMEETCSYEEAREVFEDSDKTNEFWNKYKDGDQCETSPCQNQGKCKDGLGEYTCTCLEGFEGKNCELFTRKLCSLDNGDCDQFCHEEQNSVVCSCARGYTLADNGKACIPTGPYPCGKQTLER
pKi: −log10 of the molar value.
assay metric: pKi

                                    molecule  recorded_value
 0  CCOC(=O)C1CCN(C(=O)c2cc(C(=O)NC3CCN(C(C)C)CC3)n(Cc3cc(-c4ccc(Cl)s4)on3)n2)CC1            6.75
 1  CC(C)N1CCC(NC(=O)c2cc(C(=O)NC#N)nn2Cc2cc(-c3ccc(Cl)s3)on2)CC1            7.40
 2  CC(C)N1CCC(NC(=O)c2cc(C(=O)N3CC(O)C3)nn2Cc2cc(-c3ccc(Cl)s3)on2)CC1            6.98
 3  CONC(=O)c1cc(C(=O)NC2CCN(C(C)C)CC2)n(Cc2cc(-c3ccc(Cl)s3)on2)n1            7.03
 4  COC(=O)c1cc(C(=O)NC2CCN(C(C)C)CC2)n(Cc2cc(-c3ccc(Cl)s3)on2)n1            7.14
 5  CC(C)N1CCC(NC(=O)c2cc(C(=O)OCC(=O)O)nn2Cc2cc(-c3ccc(Cl)s3)on2)CC1            7.31
 6  CC(C)N1CCC(NC(=O)c2cc(C(=O)N3CCC3)nn2Cc2cc(-c3ccc(Cl)s3)on2)CC1            7.20
 7  Cc1cc(C(=O)NC2CCN(C(C)C)CC2)n(Cc2cc(-c3ccc(Cl)s3)on2)n1            6.95
 8  CC(C)N1CCC(NC(=O)c2cc(C(=O)N3CCC(CO)CC3)nn2Cc2cc(-c3ccc(Cl)s3)on2)CC1            6.71
 9  O=C(NC1CCN(c2ccncc2)CC1)c1cc(-c2cccs2)nn1Cc1cc(-c2ccc(Cl)s2)on1            6.69
10  CC(C)N1CCC(NC(=O)c2cc(C(=O)NCCN3CCOCC3)nn2Cc2cc(-c3ccc(Cl)s3)on2)CC1            6.74
11  CC(C)N1CCC(NC(=O)c2cc(C(=O)NC(C(=O)O)C(F)(F)F)nn2Cc2cc(-c3ccc(Cl)s3)on2)CC1 (stereo not drawn)            7.10
12  CC(C)N1CCC(NC(=O)c2cc(C(=O)NCC(=O)O)nn2CC(=O)Nc2ccc(Cl)cn2)CC1            7.64
13  CC(C)N1CCC(NC(=O)c2cc(C(=O)N3CC[C@H]3C(=O)O)nn2Cc2cc(-c3ccc(Cl)s3)on2)CC1            6.87
14  CC(C)N1CCC(NC(=O)c2cc(C(=O)OCCN3CCNC3=O)nn2Cc2cc(-c3ccc(Cl)s3)on2)CC1            7.35

###

system: UniProt P00742
# Ki per entry
assay metric: Ki (nM)

In [3]: df
Out[3]:
                                    compound  recorded_value
 0  CC(C)N1CCC(NC(=O)c2cc(C(=O)N3CCC(O)C3)nn2Cc2cc(-c3ccc(Cl)s3)on2)CC1 (centres unmarked)             122
 1  COC[C@@H]1CCCN1C(=O)c1cc(C(=O)NC2CCN(C(C)C)CC2)n(Cc2cc(-c3ccc(Cl)s3)on2)n1             152
 2  CC(C)N1CCC(NC(=O)c2cc(C(=O)NCCO)nn2Cc2cc(-c3ccc(Cl)s3)on2)CC1              88
 3  CC(C)N1CCC(NC(=O)c2cc(C(=O)NCCCN3CCCC3=O)nn2Cc2cc(-c3ccc(Cl)s3)on2)CC1              83
 4  COCCNC(=O)c1cc(C(=O)NC2CCN(C(C)C)CC2)n(Cc2cc(-c3ccc(Cl)s3)on2)n1              86
 5  CCCc1nn(Cc2cc(-c3ccc(Cl)s3)on2)c(C(=O)NC2CCN(C(C)C)CC2)c1C#N              41
 6  CC(C)N1CCC(NC(=O)c2cc(C(=O)NC3=NCCO3)nn2Cc2cc(-c3ccc(Cl)s3)on2)CC1              99
 7  CC(C)N1CCC(NC(=O)c2cc(C(=O)NC[Si](C)(C)C)nn2Cc2cc(-c3ccc(Cl)s3)on2)CC1             149
 8  COCCN(CCOC)C(=O)c1cc(C(=O)NC2CCN(C(C)C)CC2)n(Cc2cc(-c3ccc(Cl)s3)on2)n1             180
 9  CC(C)N1CCC(NC(=O)c2cc(C(=O)N3CCC(F)(F)CC3)nn2Cc2cc(-c3ccc(Cl)s3)on2)CC1             184
10  CC(C)C(NC(=O)c1cc(C(=O)NC2CCN(C(C)C)CC2)n(Cc2cc(-c3ccc(Cl)s3)on2)n1)C(=O)O (centres unmarked)             140
11  CC(C)N1CCC(NC(=O)c2cc(C(=O)NCCC(=O)O)nn2Cc2cc(-c3ccc(Cl)s3)on2)CC1              63
12  CC(C)N1CCC(NC(=O)c2cc(C(=O)NCC(F)(F)F)nn2Cc2cc(-c3ccc(Cl)s3)on2)CC1              86
13  CC(C)OC(=O)CNC(=O)c1cc(C(=O)NC2CCN(C(C)C)CC2)n(CC(=O)Nc2ccc(Cl)cn2)n1              41
14  CCOC(=O)CNC(=O)c1cc(C(=O)NC2CCN(C(C)C)CC2)n(CC(=O)Nc2ccc(Cl)cn2)n1              36
15  CC(C)N1CCC(NC(=O)c2cc(C(=O)N3CCC4(CCCC4)CC3)nn2Cc2cc(-c3ccc(Cl)s3)on2)CC1             932
16  CCOC(=O)CNC(=O)c1cc(C(=O)NC2CCN(C(C)C)CC2)n(Cc2cc(-c3ccc(Cl)s3)on2)n1             101
17  CC(C)N1CCC(NC(=O)c2cc(-c3cccs3)nn2Cc2cc(-c3ccc(Cl)s3)on2)CC1              30
18  CCCc1cc(C(=O)NC2CCN(C(C)C)CC2)n(Cc2cc(-c3ccc(Cl)s3)on2)n1              54
19  CCOC(=O)C(NC(=O)c1cc(C(=O)NC2CCN(C(C)C)CC2)n(Cc2cc(-c3ccc(Cl)s3)on2)n1)C(C)C (centres unmarked)             228
20  CC(C)N1CCC(NC(=O)c2cc(-c3ccc(Cl)s3)nn2Cc2cc(-c3ccc(Cl)s3)on2)CC1             300
21  CC(C)N1CCC(NC(=O)c2c(C#N)cnn2Cc2cc(-c3ccc(Cl)s3)on2)CC1              99
22  CC(C)N1CCC(NC(=O)c2cc(C(=O)NC3CCC3)nn2CC(=O)Nc2ccc(Cl)cn2)CC1              16
23  CC(C)N1CCC(NC(=O)c2cc(C(=O)N3CCC[C@H]3CO)nn2Cc2cc(-c3ccc(Cl)s3)on2)CC1              90
24  CC(C)N1CCC(NC(=O)c2cc(C(=O)N(C)C3CCS(=O)(=O)C3)nn2Cc2cc(-c3ccc(Cl)s3)on2)CC1 (centres unmarked)             123
25  CC(C)N1CCC(NC(=O)c2cc(C(=O)NCCCO)nn2Cc2cc(-c3ccc(Cl)s3)on2)CC1              80
26  CC(C)N1CCC(NC(=O)c2cc(C(=O)NC3CCS(=O)(=O)C3)nn2Cc2cc(-c3ccc(Cl)s3)on2)CC1 (centres unmarked)              76
27  CC(C)N1CCC(NC(=O)c2cc(C(=O)N3CCCC3C(F)(F)F)nn2Cc2cc(-c3ccc(Cl)s3)on2)CC1 (centres unmarked)              72
28  CC(C)N1CCC(NC(=O)c2cc(C(=O)NC(CO)(CO)CO)nn2Cc2cc(-c3ccc(Cl)s3)on2)CC1             192
